Documented Dmax across a set of molecules
# test target: p300 (Homo sapiens, UniProt Q09472)
# Construct: host or cells: A549 P300 HiBit cells
# Sequence (Q09472 whole entry): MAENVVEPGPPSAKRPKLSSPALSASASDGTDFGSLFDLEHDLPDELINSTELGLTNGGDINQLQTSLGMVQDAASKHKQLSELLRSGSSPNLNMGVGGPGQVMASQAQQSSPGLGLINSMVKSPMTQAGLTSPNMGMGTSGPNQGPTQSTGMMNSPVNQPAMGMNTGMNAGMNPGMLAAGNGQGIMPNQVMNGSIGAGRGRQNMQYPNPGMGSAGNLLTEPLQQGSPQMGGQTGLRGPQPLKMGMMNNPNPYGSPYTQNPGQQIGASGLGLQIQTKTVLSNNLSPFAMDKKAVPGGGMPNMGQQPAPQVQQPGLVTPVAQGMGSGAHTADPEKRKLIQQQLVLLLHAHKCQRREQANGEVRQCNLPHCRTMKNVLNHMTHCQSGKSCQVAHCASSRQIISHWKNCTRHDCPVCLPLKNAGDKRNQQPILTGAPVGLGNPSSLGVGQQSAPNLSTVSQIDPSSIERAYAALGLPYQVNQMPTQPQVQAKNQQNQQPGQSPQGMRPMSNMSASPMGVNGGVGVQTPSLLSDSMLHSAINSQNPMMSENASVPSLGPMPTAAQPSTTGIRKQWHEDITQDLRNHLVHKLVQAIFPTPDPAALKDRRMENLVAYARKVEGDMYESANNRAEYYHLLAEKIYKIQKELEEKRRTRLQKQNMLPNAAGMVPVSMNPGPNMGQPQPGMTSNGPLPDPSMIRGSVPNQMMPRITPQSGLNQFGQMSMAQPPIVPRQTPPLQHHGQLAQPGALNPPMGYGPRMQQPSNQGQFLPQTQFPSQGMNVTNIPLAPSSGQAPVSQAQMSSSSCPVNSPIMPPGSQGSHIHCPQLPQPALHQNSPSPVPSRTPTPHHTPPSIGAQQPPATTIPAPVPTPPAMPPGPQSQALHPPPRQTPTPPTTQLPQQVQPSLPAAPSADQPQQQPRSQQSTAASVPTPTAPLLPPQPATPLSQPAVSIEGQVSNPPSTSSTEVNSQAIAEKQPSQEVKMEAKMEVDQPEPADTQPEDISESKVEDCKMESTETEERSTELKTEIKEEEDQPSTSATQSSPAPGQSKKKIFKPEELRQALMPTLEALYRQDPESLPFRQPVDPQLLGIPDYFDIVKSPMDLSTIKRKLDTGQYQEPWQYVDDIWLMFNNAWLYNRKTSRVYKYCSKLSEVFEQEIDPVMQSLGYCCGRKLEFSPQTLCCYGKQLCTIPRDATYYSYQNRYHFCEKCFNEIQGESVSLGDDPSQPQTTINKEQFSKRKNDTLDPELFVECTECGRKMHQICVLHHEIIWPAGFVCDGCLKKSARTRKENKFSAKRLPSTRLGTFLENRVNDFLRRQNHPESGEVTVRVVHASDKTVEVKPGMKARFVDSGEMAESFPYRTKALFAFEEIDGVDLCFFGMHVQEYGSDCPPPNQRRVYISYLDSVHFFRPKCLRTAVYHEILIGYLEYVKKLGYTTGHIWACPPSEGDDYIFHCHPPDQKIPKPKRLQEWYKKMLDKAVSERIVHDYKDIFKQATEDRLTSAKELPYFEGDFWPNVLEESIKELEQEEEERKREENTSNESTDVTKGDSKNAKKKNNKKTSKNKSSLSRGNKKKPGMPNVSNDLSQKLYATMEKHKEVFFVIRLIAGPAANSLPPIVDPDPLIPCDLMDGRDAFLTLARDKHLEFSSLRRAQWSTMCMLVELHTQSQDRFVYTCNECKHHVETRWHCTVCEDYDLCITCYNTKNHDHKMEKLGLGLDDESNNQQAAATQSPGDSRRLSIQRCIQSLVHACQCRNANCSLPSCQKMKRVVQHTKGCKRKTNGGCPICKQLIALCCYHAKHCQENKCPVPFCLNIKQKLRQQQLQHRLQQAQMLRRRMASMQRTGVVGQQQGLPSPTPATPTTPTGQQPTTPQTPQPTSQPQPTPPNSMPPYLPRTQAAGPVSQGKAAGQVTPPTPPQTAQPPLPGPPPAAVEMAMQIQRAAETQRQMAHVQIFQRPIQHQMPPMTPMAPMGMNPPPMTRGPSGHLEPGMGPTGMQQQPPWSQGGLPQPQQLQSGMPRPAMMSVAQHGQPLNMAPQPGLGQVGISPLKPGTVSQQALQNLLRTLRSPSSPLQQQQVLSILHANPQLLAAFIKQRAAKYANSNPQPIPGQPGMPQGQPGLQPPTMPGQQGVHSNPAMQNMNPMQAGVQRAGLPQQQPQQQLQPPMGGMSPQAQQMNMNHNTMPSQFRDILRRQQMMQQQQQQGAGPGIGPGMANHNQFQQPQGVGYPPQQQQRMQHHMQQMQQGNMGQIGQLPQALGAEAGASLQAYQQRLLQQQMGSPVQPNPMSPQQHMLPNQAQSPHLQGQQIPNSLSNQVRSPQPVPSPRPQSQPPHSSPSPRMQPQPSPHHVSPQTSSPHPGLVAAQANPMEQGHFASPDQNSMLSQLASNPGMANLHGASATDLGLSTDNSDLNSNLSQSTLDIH
# assay method text: P300 degradation, HiBit technology in A549 P300 HiBit cells (2 h)
# Format: cell-based
# test parameters: A549, A549 P300 HiBit cells, 2 hrs post treatment

stdin: Given the entry Cn1c(=O)n(C)c2c(N3CC[Si](C)(C)CC3)nc(-c3cccc4cc(-c5ccc(C(=O)NCC#Cc6ccc7occ(C8CCC(=O)NC8=O)c7c6)nc5)ncc34)cc21 (stereo not shown) , report its measured Dmax.
stdout: 60 to 79%

stdin: Given the entry CC(C)c1cc(-c2cccc3cc(-c4ccc(C(=O)NCC#Cc5cc6c(cn5)cnn6C5CCC(=O)NC5=O)nc4)ncc23)cc2c1n(C)c(=O)n2C (stereo not shown) , report its measured Dmax.
stdout: 60 to 79%

stdin: Given the entry CC(C)c1cc(C2CC(C)(C)Oc3cc(-c4ccc(C(=O)NCC#Cc5ccc6occ(C7CCC(=O)NC7=O)c6c5)nc4)ncc32)cc2c1n(C)c(=O)n2C (stereo not shown) , report its measured Dmax.
stdout: > 80%

stdin: Given the entry Cc1cc(-c2ncc3c(n2)OCCN3c2ccc3c(c2)n(C)c(=O)n3C)cnc1C(=O)NCC#Cc1cc2c(C3CCC(=O)NC3=O)ccc(F)c2o1 (stereo not shown) , report its measured Dmax.
stdout: 60 to 79%

stdin: Given the entry Cn1cc(-c2ccc3c(c2)n(C)c(=O)n3C)c2cnc(-c3ccc(C(=O)NCC#Cc4ccc5occ(C6CCC(=O)NC6=O)c5c4)nc3)cc2c1=O (stereo not shown) , report its measured Dmax.
stdout: > 80%

====

# test target: p300 (Homo sapiens)
# Construct: host or cells: A549 P300 HiBit cells
# assay method text: P300 degradation, HiBit technology in A549 P300 HiBit cells (2 h)
# Type: cell-based
# test parameters: A549 P300 HiBit cells, 2 hrs post treatment
# Method: p300 and CBP degradation potency and Dmax were determined using in cell western (ICW) assay technology in H1299 cells or HiBit technology in A549 HiBit cells. A549 P300 HiBit and A549 CBP HiBit cells were plated in separate 384-well, TC treated, white-opaque, flat-bottomed microplate. […] After incubation, luminescent signal of each plate was measured using the Envision instrument (Perkin Elmer).
assay metric: DC50

Examples from the recorded data:
Cn1c(=O)n(C)c2c(N3CCC3)nc(-c3cccc4cc(-c5ccc(C(=O)NCC#Cc6cc7c(C8CCC(=O)NC8=O)cccc7o6)nc5)ncc34)cc21 (stereo not drawn) [Example A205] :: 1 to 9.9 nM
CC(C)c1cc(-c2cccc3cc(-c4ccc(C(=O)NCC#Cc5ccc6ncn(C7CCC(=O)NC7=O)c6c5)nc4)ncc23)cc2c1n(C)c(=O)n2C (stereo not drawn) [Example A15] :: < 1 nM
Cn1c(=O)n(C)c2c(N3CCOCC3)cc(N3CCCc4nc(-c5ccc(C(=O)NCC#Cc6ccc7occ(C8CCC(=O)NC8=O)c7c6)nc5)ncc43)cc21 (stereo not drawn) [Example A127] :: < 1 nM

stdin: Given the entry CC(C)c1cc(-c2cccc3cc(-c4ccc(C(=O)NCC#Cc5cc6c(C7CCC(=O)NC7=O)nccc6s5)nc4)ncc23)cc2c1n(C)c(=O)n2C (stereo not drawn) [Example A208] , report its measured DC50.
stdout: 1 to 9.9 nM

stdin: Given the entry Cc1c(-c2ccc(C(=O)NCC#Cc3ccc4occ(C5CCC(=O)NC5=O)c4c3)nc2)ncc2c(-c3ccc4c(c3)n(C)c(=O)n4C)cccc12 (stereo not drawn) [Example A63] , report its measured DC50.
stdout: < 1 nM

stdin: Given the entry Cn1c(=O)n(C)c2cc(N3CCCc4cc(-c5ccc(C(=O)NCC#Cc6cc7c(C8CCC(=O)NC8=O)cccc7o6)nc5)nnc43)ccc21 (stereo not drawn) [Example A217] , report its measured DC50.
stdout: 1 to 9.9 nM

stdin: Given the entry CCc1cc(-c2cccc3cc(-c4ccc(C(=O)NCC#Cc5ccc6c(C)nn(C7CCC(=O)NC7=O)c6c5)nc4)ncc23)c2cc(C)c(=O)n(C)c2c1 (stereo not drawn) [Example B1] , report its measured DC50.
stdout: 10 to 99 nM

stdin: Given the entry Cc1cc(N2CCN(C)c3nc(-c4ccc(C(=O)NCC#Cc5cc6c(C7CCC(=O)NC7=O)cccc6o5)nc4)ncc32)c2cc(C)c(=O)n(C)c2c1 (stereo not drawn) [Example B104] , report its measured DC50.
stdout: 1 to 9.9 nM

stdin: Given the entry CN1C(=O)Cc2cc(-c3cccc4cc(-c5ccc(C(=O)NCC#Cc6ccc7occ(C8CCC(=O)NC8=O)c7c6)nc5)ncc34)ccc21 (stereo not drawn) [Example A104] , report its measured DC50.
stdout: > 1000 nM
